biological target: ACVR2A (human) (UniProt P27037); test: KINOMEscan competition binding; conditions: compound 10.0 µM
Sequence (P27037 whole entry, looked up): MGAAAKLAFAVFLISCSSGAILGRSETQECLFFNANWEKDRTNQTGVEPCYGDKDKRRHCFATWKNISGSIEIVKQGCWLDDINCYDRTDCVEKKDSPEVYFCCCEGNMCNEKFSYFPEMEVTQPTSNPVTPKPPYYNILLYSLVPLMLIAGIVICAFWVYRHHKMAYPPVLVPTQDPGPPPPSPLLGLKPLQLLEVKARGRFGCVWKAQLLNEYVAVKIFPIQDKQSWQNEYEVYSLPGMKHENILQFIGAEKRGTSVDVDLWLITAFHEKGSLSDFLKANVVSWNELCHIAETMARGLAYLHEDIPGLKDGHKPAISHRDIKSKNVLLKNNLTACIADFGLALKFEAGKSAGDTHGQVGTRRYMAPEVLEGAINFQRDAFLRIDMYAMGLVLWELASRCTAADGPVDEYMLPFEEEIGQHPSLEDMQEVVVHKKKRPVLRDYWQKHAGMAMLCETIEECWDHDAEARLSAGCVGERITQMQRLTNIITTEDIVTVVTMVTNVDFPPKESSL
Below, each entry is listed alongside its reported kinase still bound, per cent of control.
MEASURE: kinase still bound, per cent of control (%)

COc1cc2ncnc(-n3nc(-c4ccccn4)nc3N)c2cc1OC: 66
CN(C)C/C=C/C(=O)Nc1ccc(C(=O)Nc2cccc(Nc3nccc(-c4cccnc4)n3)c2)cc1: 53
O=C(Nc1cccc(Nc2ncc(Br)c(NCCc3cnc[nH]3)n2)c1)N1CCCC1: 6.4
CCN1CCN(C(=O)Cc2ccc(Nc3ncc(F)c(Nc4ccc(C(=O)Nc5ccccc5Cl)cc4)n3)cc2)CC1: 2.2
C=CC(=O)Nc1cc(-n2c(=O)ccc3cnc4ccc(-c5cn[nH]c5)cc4c32)ccc1C: 76
N#CCNC(=O)c1ccc(-c2ccnc(Nc3ccc(N4CCOCC4)cc3)n2)cc1: 75
CCN(CC)CCCCNc1ncc2cc(-c3cc(OC)cc(OC)c3)c(NC(=O)NC(C)(C)C)nc2n1: 100
O=c1cc(N2CCOCC2)oc2c(-c3cccc4c3sc3ccccc34)cccc12: 96
C=CC(=O)Nc1ccc(CN(C(=O)Nc2c(Cl)c(OC)cc(OC)c2Cl)c2cc(Nc3ccc(N4CCN(C)CC4)cc3)ncn2)cc1: 100
CS(=O)(=O)N1CCN(Cc2cc3nc(-c4cccc5[nH]ncc45)nc(N4CCOCC4)c3s2)CC1: 100
NC(=O)Nc1cc(-c2cccc(F)c2)sc1C(=O)N[C@@H]1CCCNC1: 2.2
C[C@@H](Oc1cc(-c2cnn(C3CCNCC3)c2)cnc1N)c1c(Cl)ccc(F)c1Cl: 30
CNC(=O)c1ccc(Nc2cc(Nc3ccccc3S(=O)(=O)C(C)C)c3cc[nH]c3n2)nc1: 100
Cc1n[nH]c2ccc(-c3cncc(OC[C@@H](N)Cc4c[nH]c5ccccc45)c3)cc12: 100
COCC(=O)NC/C=C/c1ccc2ncnc(Nc3ccc(Oc4ccc(C)nc4)c(C)c3)c2c1: 100
COc1cc(C(=O)N2CCC(N3CCN(C)CC3)CC2)ccc1Nc1ncc2c(n1)N(C)c1ccccc1C(=O)N2C: 100
COc1ccc(N(C(=O)Oc2c(C)cccc2C)c2ccnc(Nc3ccc(N4CCN(C)CC4)cc3)n2)c(OC)c1: 0.75

----------
target: PRKD1 (human) (UniProt Q15139); assay: KINOMEscan competition binding; details: compound 10.0 µM
Sequence (Q15139 whole entry, looked up): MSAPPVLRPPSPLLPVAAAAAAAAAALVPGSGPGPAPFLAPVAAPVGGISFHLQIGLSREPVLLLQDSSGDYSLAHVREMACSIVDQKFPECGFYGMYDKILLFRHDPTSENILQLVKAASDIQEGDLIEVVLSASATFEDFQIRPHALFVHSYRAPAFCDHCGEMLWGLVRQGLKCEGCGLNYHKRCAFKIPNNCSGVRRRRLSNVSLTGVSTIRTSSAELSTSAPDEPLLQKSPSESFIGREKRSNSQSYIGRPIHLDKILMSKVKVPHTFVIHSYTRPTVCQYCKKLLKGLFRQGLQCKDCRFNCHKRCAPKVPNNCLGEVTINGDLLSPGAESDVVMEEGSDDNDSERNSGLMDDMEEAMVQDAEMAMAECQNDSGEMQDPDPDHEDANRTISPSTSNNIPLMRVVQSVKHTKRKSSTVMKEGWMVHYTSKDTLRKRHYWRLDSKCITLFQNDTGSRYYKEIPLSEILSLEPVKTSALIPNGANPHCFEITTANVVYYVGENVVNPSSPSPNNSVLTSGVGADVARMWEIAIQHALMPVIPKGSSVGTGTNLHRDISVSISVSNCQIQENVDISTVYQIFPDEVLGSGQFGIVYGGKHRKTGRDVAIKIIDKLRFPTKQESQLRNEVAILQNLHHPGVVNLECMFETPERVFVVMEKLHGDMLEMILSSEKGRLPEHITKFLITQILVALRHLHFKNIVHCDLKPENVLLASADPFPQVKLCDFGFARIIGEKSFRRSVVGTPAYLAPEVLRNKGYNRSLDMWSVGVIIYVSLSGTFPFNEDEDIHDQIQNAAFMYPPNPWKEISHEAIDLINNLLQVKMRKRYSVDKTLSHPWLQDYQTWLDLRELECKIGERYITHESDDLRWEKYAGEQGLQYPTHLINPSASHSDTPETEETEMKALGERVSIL
Below, each entry is listed alongside its reported kinase still bound, per cent of control.
MEASURE: kinase still bound, per cent of control (%)

COc1cc2ncn(-c3cc(OCc4ccccc4C(F)(F)F)c(C(N)=O)s3)c2cc1OC: 100
C=CC(=O)Nc1ccc(CN(C(=O)Nc2c(Cl)c(OC)cc(OC)c2Cl)c2cc(Nc3ccc(N4CCN(C)CC4)cc3)ncn2)cc1: 100
CCN1CCN(C(=O)Cc2ccc(Nc3ncc(F)c(Nc4ccc(C(=O)Nc5ccccc5Cl)cc4)n3)cc2)CC1: 100

----------
Below, each entry is listed alongside its reported kinase still bound, per cent of control.
molecular target: MAP3K9 (human) (UniProt P80192); assay: KINOMEscan competition binding; settings: compound 10.0 µM
Sequence (P80192 whole entry, looked up): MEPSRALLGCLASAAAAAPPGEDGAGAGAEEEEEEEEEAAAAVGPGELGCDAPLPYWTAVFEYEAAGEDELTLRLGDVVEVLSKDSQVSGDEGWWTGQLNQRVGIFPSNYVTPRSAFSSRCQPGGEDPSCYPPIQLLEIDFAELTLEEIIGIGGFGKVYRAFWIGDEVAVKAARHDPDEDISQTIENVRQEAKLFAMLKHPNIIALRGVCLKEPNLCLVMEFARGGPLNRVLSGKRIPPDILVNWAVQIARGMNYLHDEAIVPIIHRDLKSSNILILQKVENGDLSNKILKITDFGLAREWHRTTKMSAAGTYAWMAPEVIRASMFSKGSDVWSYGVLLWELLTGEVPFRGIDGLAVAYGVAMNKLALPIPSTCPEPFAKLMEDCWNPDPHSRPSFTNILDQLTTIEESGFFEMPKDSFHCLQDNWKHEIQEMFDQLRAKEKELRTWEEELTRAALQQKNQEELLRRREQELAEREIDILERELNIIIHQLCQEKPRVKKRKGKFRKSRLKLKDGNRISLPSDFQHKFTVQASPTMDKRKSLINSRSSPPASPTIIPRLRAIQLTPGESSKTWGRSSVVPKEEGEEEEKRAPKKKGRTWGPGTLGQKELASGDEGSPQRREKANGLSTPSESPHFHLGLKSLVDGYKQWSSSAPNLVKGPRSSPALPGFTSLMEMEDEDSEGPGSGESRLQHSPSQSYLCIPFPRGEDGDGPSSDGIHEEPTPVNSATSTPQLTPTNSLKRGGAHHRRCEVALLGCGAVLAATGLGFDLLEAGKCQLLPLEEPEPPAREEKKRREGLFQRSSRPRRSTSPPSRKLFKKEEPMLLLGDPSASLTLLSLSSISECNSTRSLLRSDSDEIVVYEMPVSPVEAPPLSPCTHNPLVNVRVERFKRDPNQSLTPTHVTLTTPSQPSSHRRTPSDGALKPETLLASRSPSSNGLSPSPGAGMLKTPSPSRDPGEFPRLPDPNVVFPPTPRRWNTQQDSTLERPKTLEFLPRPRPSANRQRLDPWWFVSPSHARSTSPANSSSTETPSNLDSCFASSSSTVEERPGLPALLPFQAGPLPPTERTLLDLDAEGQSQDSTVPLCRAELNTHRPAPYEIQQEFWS
MEASURE: kinase still bound, per cent of control (%)

O=C(Nc1cccc(Nc2ncc(Br)c(NCCc3cnc[nH]3)n2)c1)N1CCCC1: 0.45
COCC(=O)NC/C=C/c1ccc2ncnc(Nc3ccc(Oc4ccc(C)nc4)c(C)c3)c2c1: 74
C=CC(=O)Nc1cc(-n2c(=O)ccc3cnc4ccc(-c5cn[nH]c5)cc4c32)ccc1C: 86
COc1cc2ncnc(-n3nc(-c4ccccn4)nc3N)c2cc1OC: 70

----------
Below, each entry is listed alongside its reported kinase still bound, per cent of control.
molecular target: GSK3A (human); assay: KINOMEscan competition binding; conditions: compound 10.0 µM
MEASURE: kinase still bound, per cent of control

CS(=O)(=O)N1CCN(Cc2cc3nc(-c4cccc5[nH]ncc45)nc(N4CCOCC4)c3s2)CC1: 100%
O=c1cc(N2CCOCC2)oc2c(-c3cccc4c3sc3ccccc34)cccc12: 78%
C=CC(=O)Nc1cc(-n2c(=O)ccc3cnc4ccc(-c5cn[nH]c5)cc4c32)ccc1C: 13%
COc1cc2ncnc(-n3nc(-c4ccccn4)nc3N)c2cc1OC: 73%

----------
target: CAMK2B (human); test: KINOMEscan competition binding; settings: compound 10.0 µM
Below, each entry is listed alongside its reported kinase still bound, per cent of control.
MEASURE: kinase still bound, per cent of control (%)

CS(=O)(=O)N1CCN(Cc2cc3nc(-c4cccc5[nH]ncc45)nc(N4CCOCC4)c3s2)CC1: 100
C=CC(=O)Nc1ccc(CN(C(=O)Nc2c(Cl)c(OC)cc(OC)c2Cl)c2cc(Nc3ccc(N4CCN(C)CC4)cc3)ncn2)cc1: 100
CCN1CCN(C(=O)Cc2ccc(Nc3ncc(F)c(Nc4ccc(C(=O)Nc5ccccc5Cl)cc4)n3)cc2)CC1: 72
COCC(=O)NC/C=C/c1ccc2ncnc(Nc3ccc(Oc4ccc(C)nc4)c(C)c3)c2c1: 88
COc1cc2ncnc(-n3nc(-c4ccccn4)nc3N)c2cc1OC: 37
COc1cc(C(=O)N2CCC(N3CCN(C)CC3)CC2)ccc1Nc1ncc2c(n1)N(C)c1ccccc1C(=O)N2C: 62
O=C(Nc1cccc(Nc2ncc(Br)c(NCCc3cnc[nH]3)n2)c1)N1CCCC1: 35
CCN(CC)CCCCNc1ncc2cc(-c3cc(OC)cc(OC)c3)c(NC(=O)NC(C)(C)C)nc2n1: 100
COc1cc(N2CCN(C)CC2)ccc1Nc1ncc2c(n1)N(C)c1ccccc1C(=O)N2C: 100

----------
molecular target: LATS2 (human); assay: KINOMEscan competition binding; settings: compound 10.0 µM
MEASURE: kinase still bound, per cent of control

C[C@@H](Oc1cc(-c2cnn(C3CCNCC3)c2)cnc1N)c1c(Cl)ccc(F)c1Cl: 56%
CN(C)C/C=C/C(=O)Nc1ccc(C(=O)Nc2cccc(Nc3nccc(-c4cccnc4)n3)c2)cc1: 86%
C=CC(=O)Nc1ccc(CN(C(=O)Nc2c(Cl)c(OC)cc(OC)c2Cl)c2cc(Nc3ccc(N4CCN(C)CC4)cc3)ncn2)cc1: 100%
CCN1CCN(C(=O)Cc2ccc(Nc3ncc(F)c(Nc4ccc(C(=O)Nc5ccccc5Cl)cc4)n3)cc2)CC1: 100%

----------
target: CDKL2 (human) (UniProt Q92772); assay: KINOMEscan competition binding; conditions: compound 10.0 µM
Sequence (Q92772 whole entry, looked up): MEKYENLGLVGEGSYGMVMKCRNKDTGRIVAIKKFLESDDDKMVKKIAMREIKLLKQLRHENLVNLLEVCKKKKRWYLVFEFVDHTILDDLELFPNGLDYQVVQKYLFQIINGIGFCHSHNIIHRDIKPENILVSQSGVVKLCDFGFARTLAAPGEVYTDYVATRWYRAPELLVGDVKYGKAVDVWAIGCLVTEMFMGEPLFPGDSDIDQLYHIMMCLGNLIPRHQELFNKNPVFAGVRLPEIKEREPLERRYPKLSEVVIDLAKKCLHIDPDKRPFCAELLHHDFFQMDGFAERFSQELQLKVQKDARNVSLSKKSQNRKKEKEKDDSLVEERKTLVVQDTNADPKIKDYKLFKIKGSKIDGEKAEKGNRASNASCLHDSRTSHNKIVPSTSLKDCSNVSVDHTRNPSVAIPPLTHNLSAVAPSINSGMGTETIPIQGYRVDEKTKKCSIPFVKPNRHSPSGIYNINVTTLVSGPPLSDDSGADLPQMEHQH
MEASURE: kinase still bound, per cent of control (%)

C=CC(=O)Nc1cc(-n2c(=O)ccc3cnc4ccc(-c5cn[nH]c5)cc4c32)ccc1C: 17
C=CC(=O)Nc1ccc(CN(C(=O)Nc2c(Cl)c(OC)cc(OC)c2Cl)c2cc(Nc3ccc(N4CCN(C)CC4)cc3)ncn2)cc1: 0.35
CCN(CC)CCCCNc1ncc2c(n1)N(C)C(=O)N(c1c(Cl)c(OC)cc(OC)c1Cl)C2: 100
C[C@@H](Oc1cc(-c2cnn(C3CCNCC3)c2)cnc1N)c1c(Cl)ccc(F)c1Cl: 5.4
N#CCNC(=O)c1ccc(-c2ccnc(Nc3ccc(N4CCOCC4)cc3)n2)cc1: 69
COc1cc(N2CCN(C)CC2)ccc1Nc1ncc2c(n1)N(C)c1ccccc1C(=O)N2C: 100
CNC(=O)c1ccc(Nc2cc(Nc3ccccc3S(=O)(=O)C(C)C)c3cc[nH]c3n2)nc1: 100
CS(=O)(=O)N1CCN(Cc2cc3nc(-c4cccc5[nH]ncc45)nc(N4CCOCC4)c3s2)CC1: 100
NC(=O)Nc1cc(-c2cccc(F)c2)sc1C(=O)N[C@@H]1CCCNC1: 60

----------
target: ERN1 (human) (UniProt O75460); assay: KINOMEscan competition binding; details: compound 10.0 µM
Sequence (O75460 whole entry, looked up): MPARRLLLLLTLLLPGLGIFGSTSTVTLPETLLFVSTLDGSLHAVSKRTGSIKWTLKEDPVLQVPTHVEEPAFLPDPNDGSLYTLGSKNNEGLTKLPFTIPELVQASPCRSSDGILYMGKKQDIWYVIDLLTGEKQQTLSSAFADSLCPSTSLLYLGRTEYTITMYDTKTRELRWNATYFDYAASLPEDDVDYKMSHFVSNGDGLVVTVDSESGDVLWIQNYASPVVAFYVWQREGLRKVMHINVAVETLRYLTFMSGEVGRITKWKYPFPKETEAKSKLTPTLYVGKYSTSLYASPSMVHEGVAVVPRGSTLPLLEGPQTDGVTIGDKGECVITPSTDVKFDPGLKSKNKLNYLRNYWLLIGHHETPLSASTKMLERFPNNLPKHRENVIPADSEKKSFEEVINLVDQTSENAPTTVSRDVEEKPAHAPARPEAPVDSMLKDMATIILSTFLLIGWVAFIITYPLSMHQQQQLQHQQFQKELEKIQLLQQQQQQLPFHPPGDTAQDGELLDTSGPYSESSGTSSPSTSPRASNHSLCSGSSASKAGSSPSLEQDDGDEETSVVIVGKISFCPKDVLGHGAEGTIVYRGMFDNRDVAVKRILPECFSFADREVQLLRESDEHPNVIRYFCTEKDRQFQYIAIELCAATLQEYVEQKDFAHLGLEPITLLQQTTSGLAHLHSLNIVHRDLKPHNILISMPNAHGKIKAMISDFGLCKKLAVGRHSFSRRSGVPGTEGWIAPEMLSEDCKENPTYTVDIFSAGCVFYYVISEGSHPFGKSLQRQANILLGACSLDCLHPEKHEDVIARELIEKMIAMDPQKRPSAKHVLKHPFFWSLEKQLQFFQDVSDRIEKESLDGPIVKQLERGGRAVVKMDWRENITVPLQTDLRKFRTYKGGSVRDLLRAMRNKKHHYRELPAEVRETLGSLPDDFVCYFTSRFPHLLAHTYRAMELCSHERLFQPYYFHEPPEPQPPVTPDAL
Below, each entry is listed alongside its reported kinase still bound, per cent of control.
MEASURE: kinase still bound, per cent of control (%)

COc1cc2ncnc(-n3nc(-c4ccccn4)nc3N)c2cc1OC: 46
COc1cc(N2CCN(C)CC2)ccc1Nc1ncc2c(n1)N(C)c1ccccc1C(=O)N2C: 100
O=C1NC(=O)/C(=C/c2ccc3nccc(-c4ccncc4)c3c2)S1: 66
O=c1cc(N2CCOCC2)oc2c(-c3cccc4c3sc3ccccc34)cccc12: 93
CN(C)C/C=C/C(=O)Nc1ccc(C(=O)Nc2cccc(Nc3nccc(-c4cccnc4)n3)c2)cc1: 70
COc1cc2ncn(-c3cc(OCc4ccccc4C(F)(F)F)c(C(N)=O)s3)c2cc1OC: 75
COc1cc(C(=O)N2CCC(N3CCN(C)CC3)CC2)ccc1Nc1ncc2c(n1)N(C)c1ccccc1C(=O)N2C: 59
NC(=O)Nc1cc(-c2cccc(F)c2)sc1C(=O)N[C@@H]1CCCNC1: 25
CS(=O)(=O)N1CCN(Cc2cc3nc(-c4cccc5[nH]ncc45)nc(N4CCOCC4)c3s2)CC1: 100

----------
target: MAPK8 (human); assay: KINOMEscan competition binding; conditions: compound 10.0 µM
Below, each entry is listed alongside its reported kinase still bound, per cent of control.
MEASURE: kinase still bound, per cent of control (%)

C[C@@H](Oc1cc(-c2cnn(C3CCNCC3)c2)cnc1N)c1c(Cl)ccc(F)c1Cl: 100
NC(=O)Nc1cc(-c2cccc(F)c2)sc1C(=O)N[C@@H]1CCCNC1: 29
CNC(=O)c1cc(Oc2ccc(NC(=O)Nc3ccc(Cl)c(C(F)(F)F)c3)cc2)ccn1: 100
CCN1CCN(C(=O)Cc2ccc(Nc3ncc(F)c(Nc4ccc(C(=O)Nc5ccccc5Cl)cc4)n3)cc2)CC1: 1.7
CN(C)C/C=C/C(=O)Nc1ccc(C(=O)Nc2cccc(Nc3nccc(-c4cccnc4)n3)c2)cc1: 1.2
CCN(CC)CCCCNc1ncc2cc(-c3cc(OC)cc(OC)c3)c(NC(=O)NC(C)(C)C)nc2n1: 100
COc1cc2ncnc(-n3nc(-c4ccccn4)nc3N)c2cc1OC: 12
CCN(CC)CCCCNc1ncc2c(n1)N(C)C(=O)N(c1c(Cl)c(OC)cc(OC)c1Cl)C2: 100
Cc1n[nH]c2ccc(-c3cncc(OC[C@@H](N)Cc4c[nH]c5ccccc45)c3)cc12: 100
O=C1NC(=O)/C(=C/c2ccc3nccc(-c4ccncc4)c3c2)S1: 18
C=CC(=O)Nc1ccc(CN(C(=O)Nc2c(Cl)c(OC)cc(OC)c2Cl)c2cc(Nc3ccc(N4CCN(C)CC4)cc3)ncn2)cc1: 100
COCC(=O)NC/C=C/c1ccc2ncnc(Nc3ccc(Oc4ccc(C)nc4)c(C)c3)c2c1: 66
COc1cc(C(=O)N2CCC(N3CCN(C)CC3)CC2)ccc1Nc1ncc2c(n1)N(C)c1ccccc1C(=O)N2C: 95
COc1cc(N2CCN(C)CC2)ccc1Nc1ncc2c(n1)N(C)c1ccccc1C(=O)N2C: 100
N#CCNC(=O)c1ccc(-c2ccnc(Nc3ccc(N4CCOCC4)cc3)n2)cc1: 1
C=CC(=O)Nc1cc(-n2c(=O)ccc3cnc4ccc(-c5cn[nH]c5)cc4c32)ccc1C: 1.9
COc1ccc(N(C(=O)Oc2c(C)cccc2C)c2ccnc(Nc3ccc(N4CCN(C)CC4)cc3)n2)c(OC)c1: 64
COc1cc2ncn(-c3cc(OCc4ccccc4C(F)(F)F)c(C(N)=O)s3)c2cc1OC: 100
O=C(Nc1cccc(Nc2ncc(Br)c(NCCc3cnc[nH]3)n2)c1)N1CCCC1: 0.2
CS(=O)(=O)N1CCN(Cc2cc3nc(-c4cccc5[nH]ncc45)nc(N4CCOCC4)c3s2)CC1: 100
O=c1cc(N2CCOCC2)oc2c(-c3cccc4c3sc3ccccc34)cccc12: 88
CNC(=O)c1ccc(Nc2cc(Nc3ccccc3S(=O)(=O)C(C)C)c3cc[nH]c3n2)nc1: 7.3
